Measured IC50 by item
Biological target: MLK3 (Homo sapiens)
Construct: purchased Dundee DU8313
Sequence (Q16584 whole entry): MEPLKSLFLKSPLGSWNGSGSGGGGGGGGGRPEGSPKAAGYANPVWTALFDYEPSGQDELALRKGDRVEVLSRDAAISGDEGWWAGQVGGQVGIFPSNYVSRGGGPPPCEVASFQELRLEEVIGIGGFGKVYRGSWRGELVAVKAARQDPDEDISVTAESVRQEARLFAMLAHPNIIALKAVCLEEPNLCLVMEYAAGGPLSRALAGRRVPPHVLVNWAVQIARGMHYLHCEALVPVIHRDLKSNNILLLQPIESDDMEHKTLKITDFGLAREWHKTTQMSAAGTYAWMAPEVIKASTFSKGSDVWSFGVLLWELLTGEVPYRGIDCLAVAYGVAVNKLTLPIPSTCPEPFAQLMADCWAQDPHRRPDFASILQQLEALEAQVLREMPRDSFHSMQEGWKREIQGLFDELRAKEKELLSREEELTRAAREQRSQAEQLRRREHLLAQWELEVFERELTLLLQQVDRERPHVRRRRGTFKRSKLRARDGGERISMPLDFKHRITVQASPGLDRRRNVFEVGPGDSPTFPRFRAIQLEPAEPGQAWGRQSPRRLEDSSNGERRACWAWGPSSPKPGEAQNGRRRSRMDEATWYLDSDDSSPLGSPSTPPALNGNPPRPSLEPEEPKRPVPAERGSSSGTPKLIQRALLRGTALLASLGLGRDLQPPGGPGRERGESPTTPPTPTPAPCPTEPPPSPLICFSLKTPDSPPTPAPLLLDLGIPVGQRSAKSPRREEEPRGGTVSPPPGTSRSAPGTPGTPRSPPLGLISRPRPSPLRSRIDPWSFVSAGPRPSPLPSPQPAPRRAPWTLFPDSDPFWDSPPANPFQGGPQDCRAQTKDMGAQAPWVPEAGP
Experiment: Radiometric filter plate MLK3 assay; further: 2 µM cold ATP (Km)
Type: biochemical
Details: read-out: MK3 IC50

Answered examples (5):
COc1cc(-c2cnc3[nH]c(=O)n(C4CCc5ccccc54)c3n2)cc(OC)c1OC (centres unmarked) = > 1000 nM
Cc1cc(C)cc(-c2cnc3[nH]c(=O)n(-c4ccc5scnc5c4)c3n2)c1 = > 1000 nM
COc1cc(-c2cnc3[nH]c(=O)n(-c4ccc5[nH]ccc5c4)c3n2)cc(OC)c1O = < 100 nM
O=c1[nH]c2ncc(-c3ccc4cc[nH]c4c3)nc2n1-c1ccc2[nH]ccc2c1 = > 1000 nM
COc1cc(-c2cnc3[nH]cc(-c4ccc(N)cc4)c3c2)cc(OC)c1OC = < 100 nM

Okay, now this molecule:
*Q* Which IC50 is listed for `Cc1cc(C)cc(-c2cnc3[nH]c(=O)n(-c4ccc5[nH]ccc5c4)c3n2)c1` ?
*A* > 1000 nM

The measured values listed here are drawn from patent US8846909B2.
